Reported viability, T/C values are given for each entry in this list.
# Test system: K24384-001-R-PDC complex spheroid growth
# ASSAY_PROTOCOL: Anticancer human tumor K24384-001-R-PDC patient-derived pancreatic adenocarcinoma cell line growth inhibition [AhR]
# CONDITION_INFO: second compound 0.316 µM; first compound 3.16 µM; hits give low values
Respond with the bare value in %.

Guide cases for viability, T/C, answers given:
COc1ccc([C@@H](O)c2cc(-c3ncnc4cc(N5CCOCC5)ccc34)c(F)cc2Cl)nn1 + Cc1ccccc1N=Nc1ccc(NC(=O)c2ccnn2C)c(C)c1	53.8
Nc1ccn(C2OC(CO)C(O)C2(F)F)c(=O)n1 (centres undefined) + Cc1cncc(-c2nc(NCCc3c[nH]c4ccccc34)c3ncn(C(C)C)c3n2)c1	35.1

Req: Entry CC1(C)CCC(CN2CCN(c3ccc(C(=O)NS(=O)(=O)c4ccc(NCC5CCOCC5)c([N+](=O)[O-])c4)c(Oc4cnc5[nH]ccc5c4)c3)CC2)=C(c2ccc(Cl)cc2)C1 + Cc1cncc(-c2nc(NCCc3c[nH]c4ccccc34)c3ncn(C(C)C)c3n2)c1 , system K24384-001-R-PDC complex spheroid growth: what viability, T/C was measured?
Resp: 92.7

Req: Entry NS(=O)(=O)OCC1CC(n2ccc3c(NC4CCc5ccccc54)ncnc32)CC1O (centres undefined) + Cc1ccccc1N=Nc1ccc(NC(=O)c2ccnn2C)c(C)c1 , system K24384-001-R-PDC complex spheroid growth: what viability, T/C was measured?
Resp: 27.3

----------
# System: K24384-001-R-PDC complex spheroid growth
# ASSAY_PROTOCOL: Anticancer human tumor K24384-001-R-PDC cell line growth inhibition [AhR];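 further: percent of DMSO vehicle-treated spheroid viability set as 100%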
# CONDITION_INFO: second compound 3.16 µM; first compound 1 µM; hits give low values
PROPERTY: viability, T/C

Guide cases for viability, T/C, answers given:
CC(C)c1c(-c2ccccc2)nc2c(C#N)c[nH]n2c1=O + Cc1cncc(-c2nc(NCCc3c[nH]c4ccccc34)c3ncn(C(C)C)c3n2)c1	61.9%
O=C(C=Cc1cccc(S(=O)(=O)Nc2ccccc2)c1)NO + CC(CO)NC(=O)c1cc(-c2ccc(Cl)cc2)nn(-c2cnn(C)c2)c1=O	73.3%

Switching to the query record.
Req: Bench note: what viability, T/C did Nc1ccccc1NC(=O)c1ccc(CNC(=O)OCc2cccnc2)cc1 + Cc1cncc(-c2nc(NCCc3c[nH]c4ccccc34)c3ncn(C(C)C)c3n2)c1 show?
Resp: 43%

----------
# System: K24384-001-R-PDC complex spheroid growth
# ASSAY_PROTOCOL: Anticancer human tumor K24384-001-R-PDC cell line growth inhibition [AhR];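 further: percent of DMSO vehicle-treated spheroid viability set as 100%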
# CONDITION_INFO: second compound 0.1 µM; first compound 1 µM; hits give low values
API: label(entry) gives Satisfied if the entry's viability, T/C is strictly smaller than 80%; on equality or larger values it gives Not satisfied.

// below: answered compounds
O=C(c1cc(Cc2n[nH]c(=O)c3ccccc23)ccc1F)N1CCN(C(=O)C2CC2)CC1 + Cc1ccccc1N=Nc1ccc(NC(=O)c2ccnn2C)c(C)c1	Not satisfied
Nc1ccn(C2OC(CO)C(O)C2(F)F)c(=O)n1 (stereo not given) + CC(CO)NC(=O)c1cc(-c2ccc(Cl)cc2)nn(-c2cnn(C)c2)c1=O	Satisfied
COc1cccc2c1C(=O)c1c(O)c3c(c(O)c1C2=O)CC(O)(C(=O)CO)CC3OC1CC(N)C(O)C(C)O1 (stereo not given) + Cc1cncc(-c2nc(NCCc3c[nH]c4ccccc34)c3ncn(C(C)C)c3n2)c1	Satisfied
COc1cc(C2c3cc4c(cc3C(OC3OC5COC(C)OC5C(O)C3O)C3COC(=O)C23)OCO4)cc(OC)c1O (stereo not given) + Cc1ccccc1N=Nc1ccc(NC(=O)c2ccnn2C)c(C)c1	Satisfied

Next up:
Req: Input CC1(C)CCC(CN2CCN(c3ccc(C(=O)NS(=O)(=O)c4ccc(NCC5CCOCC5)c([N+](=O)[O-])c4)c(Oc4cnc5[nH]ccc5c4)c3)CC2)=C(c2ccc(Cl)cc2)C1 + Cc1cncc(-c2nc(NCCc3c[nH]c4ccccc34)c3ncn(C(C)C)c3n2)c1 ; condition: viability, T/C strictly below 80%. Does it hold?
Resp: Not satisfied

----------
# Test system: K24384-001-R-PDC complex spheroid growth
# ASSAY_PROTOCOL: Anticancer human tumor K24384-001-R-PDC cell line growth inhibition [AhR];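 further: percent of DMSO vehicle-treated spheroid viability set as 100%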
# CONDITION_INFO: second compound 1 µM; first compound 0.1 µM; hits give low values
PROPERTY: viability, T/C

Guide cases for viability, T/C, answers given:
COc1cc(C2c3cc4c(cc3C(OC3OC5COC(C)OC5C(O)C3O)C3COC(=O)C23)OCO4)cc(OC)c1O (stereo unspecified) + CC(CO)NC(=O)c1cc(-c2ccc(Cl)cc2)nn(-c2cnn(C)c2)c1=O	96.4%
Cn1ncnc1C1c2n[nH]c(=O)c3cc(F)cc(c23)NC1c1ccc(F)cc1 (stereo unspecified) + CC(CO)NC(=O)c1cc(-c2ccc(Cl)cc2)nn(-c2cnn(C)c2)c1=O	72.4%
Nc1ncn(C2CC(O)C(CO)O2)c(=O)n1 (stereo unspecified) + CC(CO)NC(=O)c1cc(-c2ccc(Cl)cc2)nn(-c2cnn(C)c2)c1=O	95.8%
COc1cc(C2c3cc4c(cc3C(OC3OC5COC(C)OC5C(O)C3O)C3COC(=O)C23)OCO4)cc(OC)c1O (stereo unspecified) + Cc1ccccc1N=Nc1ccc(NC(=O)c2ccnn2C)c(C)c1	101%
NS(=O)(=O)OCC1CC(n2ccc3c(NC4CCc5ccccc54)ncnc32)CC1O (stereo unspecified) + Cc1cncc(-c2nc(NCCc3c[nH]c4ccccc34)c3ncn(C(C)C)c3n2)c1	154%

Switching to the query record.
Req: Bench note: what viability, T/C did O=C(C=Cc1cccc(S(=O)(=O)Nc2ccccc2)c1)NO + CC(CO)NC(=O)c1cc(-c2ccc(Cl)cc2)nn(-c2cnn(C)c2)c1=O show?
Resp: 127%

----------
# System: K24384-001-R-PDC complex spheroid growth
# ASSAY_PROTOCOL: Anticancer human tumor K24384-001-R-PDC cell line growth inhibition [AhR];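 further: percent of DMSO vehicle-treated spheroid viability set as 100%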
# CONDITION_INFO: second compound 10 µM; first compound 3.16 µM; hits give low values
API: label(entry) gives yes (1) if the entry's viability, T/C is strictly smaller than 50%; on equality or larger values it gives no (0).

// below: answered molecules
CC1COCCN1c1cc(C2(S(C)(=N)=O)CC2)nc(-c2ccnc3[nH]ccc23)n1 (configuration not stated) + CC(CO)NC(=O)c1cc(-c2ccc(Cl)cc2)nn(-c2cnn(C)c2)c1=O	no (0)
CC1(C)CCC(CN2CCN(c3ccc(C(=O)NS(=O)(=O)c4ccc(NCC5CCOCC5)c([N+](=O)[O-])c4)c(Oc4cnc5[nH]ccc5c4)c3)CC2)=C(c2ccc(Cl)cc2)C1 + Cc1cncc(-c2nc(NCCc3c[nH]c4ccccc34)c3ncn(C(C)C)c3n2)c1	yes (1)
COc1cc(C2c3cc4c(cc3C(OC3OC5COC(C)OC5C(O)C3O)C3COC(=O)C23)OCO4)cc(OC)c1O (configuration not stated) + Cc1ccccc1N=Nc1ccc(NC(=O)c2ccnn2C)c(C)c1	yes (1)
NS(=O)(=O)OCC1CC(n2ccc3c(NC4CCc5ccccc54)ncnc32)CC1O (configuration not stated) + Cc1cncc(-c2nc(NCCc3c[nH]c4ccccc34)c3ncn(C(C)C)c3n2)c1	yes (1)
O=C(c1cc(Cc2n[nH]c(=O)c3ccccc23)ccc1F)N1CCN(C(=O)C2CC2)CC1 + CC(CO)NC(=O)c1cc(-c2ccc(Cl)cc2)nn(-c2cnn(C)c2)c1=O	no (0)
O=C(c1cc(Cc2n[nH]c(=O)c3ccccc23)ccc1F)N1CCN(C(=O)C2CC2)CC1 + Cc1cncc(-c2nc(NCCc3c[nH]c4ccccc34)c3ncn(C(C)C)c3n2)c1	yes (1)

Req: Input COc1cc(Nc2ncc3c(n2)-c2ccc(Cl)cc2C(c2c(F)cccc2OC)=NC3)ccc1C(=O)O + Cc1cncc(-c2nc(NCCc3c[nH]c4ccccc34)c3ncn(C(C)C)c3n2)c1 ; condition: viability, T/C strictly below 50%. Does it hold?
Resp: yes (1)

----------
# System: K24384-001-R-PDC complex spheroid growth
# ASSAY_PROTOCOL: Anticancer human tumor K24384-001-R-PDC cell line growth inhibition [AhR]; active = viability on the fitted dose curve at most 10% of control; inactive = the rest;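 further: percent of DMSO vehicle-treated spheroid viability set as 100%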
# CONDITION_INFO: second compound 3.16 µM; first compound 1 µM
# valid calls are YES (active), NO (inactive); nothing else

COc1ccc([C@@H](O)c2cc(-c3ncnc4cc(N5CCOCC5)ccc34)c(F)cc2Cl)nn1 + Cc1ccccc1N=Nc1ccc(NC(=O)c2ccnn2C)c(C)c1	NO
COc1ccc([C@@H](O)c2cc(-c3ncnc4cc(N5CCOCC5)ccc34)c(F)cc2Cl)nn1 + CC(CO)NC(=O)c1cc(-c2ccc(Cl)cc2)nn(-c2cnn(C)c2)c1=O	NO
COc1cccc2c1C(=O)c1c(O)c3c(c(O)c1C2=O)CC(O)(C(=O)CO)CC3OC1CC(N)C(O)C(C)O1 (configuration not stated) + CC(CO)NC(=O)c1cc(-c2ccc(Cl)cc2)nn(-c2cnn(C)c2)c1=O	YES
CC(C)c1c(-c2ccccc2)nc2c(C#N)c[nH]n2c1=O + CC(CO)NC(=O)c1cc(-c2ccc(Cl)cc2)nn(-c2cnn(C)c2)c1=O	NO
CC(C)c1c(-c2ccccc2)nc2c(C#N)c[nH]n2c1=O + Cc1ccccc1N=Nc1ccc(NC(=O)c2ccnn2C)c(C)c1	NO

Req: Assay outcome for COc1cc(Nc2ncc3c(n2)-c2ccc(Cl)cc2C(c2c(F)cccc2OC)=NC3)ccc1C(=O)O + CC(CO)NC(=O)c1cc(-c2ccc(Cl)cc2)nn(-c2cnn(C)c2)c1=O : what was it?
Resp: NO

Req: Assay outcome for O=C(c1cc(Cc2n[nH]c(=O)c3ccccc23)ccc1F)N1CCN(C(=O)C2CC2)CC1 + CC(CO)NC(=O)c1cc(-c2ccc(Cl)cc2)nn(-c2cnn(C)c2)c1=O : what was it?
Resp: NO

Req: Assay outcome for COc1cc(Nc2ncc3c(n2)-c2ccc(Cl)cc2C(c2c(F)cccc2OC)=NC3)ccc1C(=O)O + Cc1cncc(-c2nc(NCCc3c[nH]c4ccccc34)c3ncn(C(C)C)c3n2)c1 : what was it?
Resp: NO

Req: Assay outcome for O=C(C=Cc1cccc(S(=O)(=O)Nc2ccccc2)c1)NO + Cc1ccccc1N=Nc1ccc(NC(=O)c2ccnn2C)c(C)c1 : what was it?
Resp: NO

Req: Assay outcome for COc1ccc([C@@H](O)c2cc(-c3ncnc4cc(N5CCOCC5)ccc34)c(F)cc2Cl)nn1 + Cc1cncc(-c2nc(NCCc3c[nH]c4ccccc34)c3ncn(C(C)C)c3n2)c1 : what was it?
Resp: NO

Req: Assay outcome for CC1COCCN1c1cc(-c2ccnn2C)c2ccnc(-c3ccn[nH]3)c2n1 (configuration not stated) + Cc1ccccc1N=Nc1ccc(NC(=O)c2ccnn2C)c(C)c1 : what was it?
Resp: NO

Req: Assay outcome for NS(=O)(=O)OCC1CC(n2ccc3c(NC4CCc5ccccc54)ncnc32)CC1O (configuration not stated) + Cc1ccccc1N=Nc1ccc(NC(=O)c2ccnn2C)c(C)c1 : what was it?
Resp: NO
